Answer each item with its documented pKd.
# target_of_assay: CXCL1 (human, UniProt P09341 35-107)
# experiment_notes: BLI
Scale explanation: pKd corresponds to minus log10 of a concentration expressed in moles per litre.

## Task // lookup pKd for P1124_IXORI (natural protein) DSKGTSDSQDSTKSIKVDFCETNCTKTDGGWTGCTGDCICVSVGDSIEGRCMDFG
## Result 8.12

## Task // same read-out, input: P1078_IXORI (natural protein) GSKGSSAQQSSHDSIKAEFCETNCTMKTGGKWTQCHGGCFCVHVGNETVGRCIKLDGDYDYPSSKHEE
## Result 8.20

## Task // same read-out, input: P1100_IXORI (natural protein) GSKGSSASQSSDNSVVAKFCDTNCTINEGGKWTECKGGCFCVHVGNETVGRCMKLDGDYDYPSPKPEE
## Result 7.30

## Task // same read-out, input: P1172_IXORI (natural protein) FLLKSQLCYCLFGIELIGAGIHALHEDEIFTVDYCGTNCTKQSNGSWTTCPGNCSCYHEDGKTDGFCLSTEYTDFTQFPNLTSEEMDAATPRPE
## Result 8.25

## Task // same read-out, input: P942 (natural protein, also: glycosylated) DGGNQLSGPQSSANSNEAVFCDTNCTQGTDEAWSGCRGDCFCVYVGNSTEGRCMMLSGDFDYSTPGAED
## Result 8.51

## Task // same read-out, input: P1142 (natural protein, glycosylated (periodic acid–Schiff staining)) DGGKPQILQRTDHSTDSDWDPQMCPETCNPSKNISCSSECLCVTLGGGDETGTCFNMSGVDWLGHAQASDGHNDGGGASAWSHPQFEKLEHHHHHHHH
## Result 8.34

## Task // same read-out, input: P675 (natural protein, also: glycosylated) GSNQLSGPQSSANSNDAVFCDTNCTQGTDGAWSGCRGDCFCVHVGNSTEGRCIELIGDFDYSTPGAED
## Result 8.00

## Task // same read-out, input: P1170_IXORI (natural protein) LGDEDQLFSVEYCGTNCTQQDDGKWTPCSGKNGKCKCYHEDGKRYGLCLYTEYTDFSQYPNPEGSEIENTRPRP
## Result 7.22

## Task // same read-out, input: P1090_IXORI (natural protein) GSKELSGPESSENSIEAAFCDTNCTEGTDGVWSGCSAGCFCVHVGNSTVGRCMTFNGVD
## Result 8.45

## Task // same read-out, input: P1134 (natural protein, glycosylated (periodic acid–Schiff staining)) NEEVFTVEYCGMNCTQKSDGTWTECSGKNKDCRCYHESDAREGLCLSTEYTDFSQFETPSNSDLEAATPRPRKTLYPVRNPHGPKTRGLGYDKRILRDRVKFLI
## Result 7.56

## Task // same read-out, input: P1104 (natural protein, also: glycosylated) ESKEASASQGPGKSFKVEFCETNCTENNGVWSGCTGDCICVSVGDSKEGRCMDLGDKVIDTPVAQG
## Result 7.84

## Task // same read-out, input: Evasin 3 (EVA3) (natural protein, also: glycosylated) DGGLVSTIESRTSGDGADNFDVVSCNKNCTSGQNECPEGCFCGLLGQNKKGHCYKIIGNLSGEPPVVRR
## Result 8.24

## Task // same read-out, input: P1126 (natural protein, also: glycosylated) DGGKPQILQRTDKSTDSEWDPQTCPETCIPSKNITCSDGCVCVKLGEEEEGTCFNMTGVDWLGSPSDD
## Result 7.98
